System: TO-N3 (biotin conjugate)
Assay: pull-down binding Z-score (relative to library population); higher = stronger binding
Conditions: RNA library: Library-2
endpoint-name: pull-down binding Z-score

# sequence-text, experimental-system, value
records = [
    ("CAAGAGAAGUGGGUUUUGUCGUGCCUGGUUUGCCUGGCACGAUAUUACGCACAACUAAUG", "TO-N3 (biotin conjugate)", -0.438),
    ("UGCAGUAUCCGCUGUUGCUGCU [hsa-mir-6132]", "TO-N3 (biotin conjugate)", -0.105),
    ("UGUACAGGUGAGCGGAUGUUCUGCACA [hsa-mir-3120]", "TO-N3 (biotin conjugate)", 1.67),
    ("UGGUUUUGCUAAAUUCCUAAAAACUA [DMSMaPseq_invitro_SARS-CoV-2_Motif_244]", "TO-N3 (biotin conjugate)", -0.632),
]

###

System: TO-3-N3 (biotin conjugate)
Test: pull-down binding Z-score (relative to library population); higher = stronger binding
Details: RNA library: Library-2
A collection of sequences and their measured pull-down binding Z-score

# sequence-text, pull-down binding Z-score
records = [
    ("GAUCCAGCCCAGGCUGGUUCCGCUGAC [hsa-mir-4522]", 1.15),
    ("GUUGAUUUUUGUGGAAAGGGCUAUCAUCUUAUGUCCUUCCCUCAGUCAGC [SHAPE_invitro_SARS-CoV-2_Motif_447]", -1.02),
    ("UGAGCAGGCCCAGAACCCAGCUCGUGCUCA [hsa-mir-6794]", 0.387),
]

###

A collection of sequences and their measured pull-down binding Z-score
Tested on: TO-N3-2 (biotin conjugate)
Test: pull-down binding Z-score (relative to library population); higher = stronger binding
Settings: RNA library: Library-2

# sequence-text, experimental-system, pull-down binding Z-score
rows = [
    ("AGGAGAAGGUGAGACCAAUGUCCUGGGUGCCACUCCU [hsa-mir-6124]", "TO-N3-2 (biotin conjugate)", -0.139),
    ("GUUCUCUAUGAGAAC", "TO-N3-2 (biotin conjugate)", -1.47),
    ("GCUAGUGGGGGACAACCAAUCACUAAUUGUGUUAAGAUGUUGUGUACACACACUGGU", "TO-N3-2 (biotin conjugate)", 0.564),
    ("UCCAGAGGCAUCCCUAACCCAGAAUCUUUUGACUGUCCUCUGGA [hsa-mir-4306]", "TO-N3-2 (biotin conjugate)", -0.281),
    ("GAACCCAAGAAAAGCUGACUUGGAGGUCCC [hsa-mir-4667]", "TO-N3-2 (biotin conjugate)", 1.27),
    ("GCCACAAAGGC [IAV_invivo_PA_3_Motif_6+IAV_invivo_PA_3_Motif_6]", "TO-N3-2 (biotin conjugate)", -0.964),
    ("UUUCUGUUGUCUGAAAGAAGAGAAA [hsa-mir-526b_518a-1]", "TO-N3-2 (biotin conjugate)", -0.584),
    ("GGGUAGUGGUGAGCAUUGACC [IAV_invivo_PB2_1_Motif_22+IAV_invivo_PB2_1_Motif_22]", "TO-N3-2 (biotin conjugate)", 0.804),
    ("AGUGAGUUGAUUACUUCUCACU [hsa-mir-4676]", "TO-N3-2 (biotin conjugate)", -0.222),
    ("CAACGGUACUAUUACCGUUG", "TO-N3-2 (biotin conjugate)", -1.59),
    ("GGAAAGGGGAUGCAGAGCCCUGCC [hsa-mir-4647]", "TO-N3-2 (biotin conjugate)", 1.52),
    ("GCAGAGACAGAAGAAACAGCAAACUGUGACUCUUCUUCCUGC", "TO-N3-2 (biotin conjugate)", 0.0897),
    ("CAAUAGUAAAAAGACAACCUGUUG [hsa-mir-3133]", "TO-N3-2 (biotin conjugate)", -0.486),
    ("CACCUCCCGGCCCGGAGCUG [hsa-mir-4734]", "TO-N3-2 (biotin conjugate)", 0.527),
]

###

A collection of sequences and their measured pull-down binding Z-score
Test system: TO-3-N3 (biotin conjugate)
Test: pull-down binding Z-score (relative to library population); higher = stronger binding
Details: RNA library: Library-2

# sequence-text, pull-down binding Z-score
data = [
    ("AAUUGGCUUUUACAAAAGACCAACU [hsa-mir-4798]", 0.117),
    ("AAGUCGAUUUCCAAAAGUGACUU [hsa-mir-3124]", -0.856),
    ("ACGUGAGUCUUGUAAAACCUUCUUUUUACGUUUACUCUCGU", 0.0863),
    ("UGUGGUCACCCACUCU [hsa-mir-4316]", -0.237),
    ("GCAGCCAGUCCUGUCUCACCGC [hsa-mir-6812]", -0.19),
    ("AGUGCAGUAUGGUGAAGUCAAUCUGUAAU [hsa-mir-590]", -0.357),
    ("UGUUUCUUUAAUGAGGACGAAACA [hsa-mir-329-1]", 0.65),
    ("CUGUAGCUGCAUUUCACCAAGAAUGUAGUUUACAG [DMSMaPseq_invitro_SARS-CoV-2_Motif_500]", 0.437),
    ("CUGACCCGUUGUCAGACCUGGAAAAAGGGCCGGCUGUGGGCAGGGAGG [hsa-mir-4761]", 4.77),
]

###

System: TO-N3 (biotin conjugate)
Assay: pull-down binding Z-score (relative to library population); higher = stronger binding
Settings: RNA library: Library-2
A collection of sequences and their measured pull-down binding Z-score
endpoint-name: pull-down binding Z-score

# sequence-text, endpoint-name, value
records = [
    ("CCGAAUACCAUAAUGAAUCUGGCUUGAAAACCAUUCUUCGUAAGGGUGGUCGCACUAUUGCCUUUGG [DMSMaPseq_invitro_SARS-CoV-2_Multi_5_ComplexLevel_1]", "pull-down binding Z-score", -0.257),
    ("CAGUGAGCUAUGAUCAUGUCCCUG [hsa-mir-1254-2]", "pull-down binding Z-score", 0.105),
    ("GGUUCUGGGGUGUAGACGCUGCUGGCCAGCC [hsa-mir-4707]", "pull-down binding Z-score", 0.587),
    ("UCAUAAAUAUUUUAAGGAAUGACCCGGCCCUGGGG [hsa-mir-4285]", "pull-down binding Z-score", -0.199),
    ("CGGGGCGGACGCAGAGCCGCGUUUAGUCUAUCG [hsa-mir-639]", "pull-down binding Z-score", 0.593),
    ("CUAGGUUUUUCUAUGUACUUGG", "pull-down binding Z-score", 0.825),
    ("UGUCUUGUAGCCAGGAUAUUGUUUUAAAGAA [hsa-mir-4668]", "pull-down binding Z-score", -0.338),
    ("CUCAAACCCGUCCUUGAUUGGCUUGAAGAGAAGUUUAAGGAAGGUGUAGAG [DMSMaPseq_invitro_SARS-CoV-2_Motif_41]", "pull-down binding Z-score", -0.455),
    ("AACCCUCACCUUAUGGGUU", "pull-down binding Z-score", -0.946),
    ("ACAAGUUGCAAUUUACAAGUCUUGAAAUUCCACGUAGGAAUGUGGCAACUUUACAAGCUGAAAAUGUAACAGGACUCUUUAAAGAUUGU", "pull-down binding Z-score", -0.143),
]

###

Tested on: TO-N3 (biotin conjugate)
Assay: pull-down binding Z-score (relative to library population); higher = stronger binding
Conditions: RNA library: Library-2

# sequence-text, pull-down binding Z-score
data = [
    ("GGUCUGAGCCCAUGUGUGGACCUAGGUCUGCUGUUAAACUGACU [hsa-mir-6831]", 0.492),
    ("AGGCCGACGAGCAGCGCAUCCUCUUACCCGGCUA [hsa-mir-138-2]", 1.11),
    ("GUUAUAAAUGGAGACAGGUGGUUUCUCAAUCGAUUUACCACAACUCUUAAUGAC", -0.772),
    ("AGUGCUAGGACACU [hsa-mir-374c]", -0.616),
    ("GUUAAUGCCUAUAUUAACCUUGACCAGGGCUUUAAC", -0.0902),
    ("CCAUCAAGCCCCACCAGAAGGUGGAGGCCCAGGUGAG [hsa-mir-4721]", 0.16),
    ("CCUGCCACGUCAAAGGAGGCAGA [hsa-mir-3154]", -0.164),
    ("GAGUUUGGAAUUAAAAUCAAAACC [hsa-mir-181a-1]", -0.398),
]

###

Tested on: TO-3-N3 (biotin conjugate)
Test: pull-down binding Z-score (relative to library population); higher = stronger binding
Details: RNA library: Library-2
Please use t whenever pull-down binding Z-score is not below -0.3, and f whenever it is.

# sequence-text, assigned-class
measured = [
    ("CGUUCGCUUUAUUUAUGGCGCACA [hsa-mir-323a]", "t"),
    ("UGGUUGGUUGGUUGGUUGGUUGGU [G4_r(UGGU)6]", "t"),
    ("GUGUUUUCUCCUUUAGAGAGAGCUG [hsa-mir-4299]", "f"),
    ("CCUUGUAGGUUUGUUACAGACACACCUAAAGG", "f"),
    ("CCUGUUUGAAUAUUUCACCAGAAACAGG [hsa-mir-4433b]", "f"),
    ("UGAAUAUGUAAUAUAAGUGUAUUG [hsa-mir-450b]", "t"),
    ("UCCUCAGUUUUACAUUCAACUCAGGA", "f"),
    ("UGUCAUUACUUUUAAUGGUA [hsa-mir-548h-1]", "f"),
    ("UUCUGUGGUUUGAAAGGAA [hsa-mir-1323]", "t"),
    ("AGAAACCUACUUAUUACAUAGUUUACAUAAGAAGCGUGAU [hsa-mir-1322]", "t"),
    ("CAACCUAAAUAGAGGUAUG", "f"),
    ("CUCAGAGGGCUGAAGUGGUUGUGGGGAGGGGCUUCUGGG [hsa-mir-4296]", "t"),
    ("AUUGACAUUAAUGGCAAUCUUCAUCCAGAUUCUGCCACUCUUGUUAGU [DMSMaPseq_invitro_SARS-CoV-2_Motif_73]", "f"),
]
